Values compiled from patent US20220259212A1.

Molecular target: Recombinant full-length human IDO1 (Homo sapiens)
Construct: Recombinant full-length human IDO1 with a N-terminal hexahistidine tag; hexahistidine (N); made in house; host or cells: E. coli
Sequence (P14902 whole entry): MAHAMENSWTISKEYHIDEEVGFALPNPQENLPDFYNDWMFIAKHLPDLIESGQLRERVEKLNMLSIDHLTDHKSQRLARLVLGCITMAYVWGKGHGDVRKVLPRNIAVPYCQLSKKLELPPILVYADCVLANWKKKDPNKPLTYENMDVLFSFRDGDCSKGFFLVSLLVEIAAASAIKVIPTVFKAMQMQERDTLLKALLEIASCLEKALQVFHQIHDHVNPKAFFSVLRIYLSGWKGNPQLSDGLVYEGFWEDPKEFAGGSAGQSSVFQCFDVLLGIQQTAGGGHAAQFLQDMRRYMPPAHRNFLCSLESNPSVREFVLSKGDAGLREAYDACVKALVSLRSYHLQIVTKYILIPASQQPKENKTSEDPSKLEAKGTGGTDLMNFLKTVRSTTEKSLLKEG
Test: IDO1 enzymatic assay (NFK quantified by LCMS)
Type: biochemical
Conditions: 2 nM enzyme, 5 μM L-tryptophan, 30 min pre-incubation, pH6.5; mean if measured multiple times; read-out: hIDO activity (IC50 in nM)
Recorded IC50, one value per entry.
Form field: result (number plus unit)

Notebook: CCOc1ccc(-n2cc(C(O)c3c(C4CC4)ncc4cncn34)nn2)cn1 (racemic) , IC50 read as 27.2 nM

Value of measured IC50 for the entry "COc1cc(F)c(-n2cc([C@H](O)c3c(C4CC4)ncc4cncn34)nn2)cc1Cl" : 5.86 nM

Memo: CCc1ccc2cncn2c1C(O)c1cn(-c2ccc(OC)cc2)nn1 (racemic) , reported IC50: 2.97 nM

Value of measured IC50 for the entry CC(C)(O)COc1ccc(-n2cc(C(O)c3c(C4CC4)ncc4cncn34)nn2)cc1 (racemic) : 33.2 nM

Record "COc1ccc(-n2cc([C@H](O)c3c(C4CC4)ncc4cncn34)nn2)cc1F" . Reported IC50: 8.24 nM

***
Briefly, IC50 measured for "Oc1ccc(-n2cc([C@@H](O)c3c(C4CC4)ccc4cncn34)nn2)cc1Cl" : 361 nM

Form field IC50, entry Cc1ccc(-n2cc(C(O)c3c(C4CC4)ccc4cncn34)nn2)cc1 (racemic) : 4.83 nM

----------
Molecular target: Recombinant human TDO comprising amino acids 19-407 (Homo sapiens, UniProt P48775)
Construct: human TDO comprising amino acids 19-407; hexahistidine (N); made in house; host or cells: E. coli
Sequence (P48775 19-406 limits assumed): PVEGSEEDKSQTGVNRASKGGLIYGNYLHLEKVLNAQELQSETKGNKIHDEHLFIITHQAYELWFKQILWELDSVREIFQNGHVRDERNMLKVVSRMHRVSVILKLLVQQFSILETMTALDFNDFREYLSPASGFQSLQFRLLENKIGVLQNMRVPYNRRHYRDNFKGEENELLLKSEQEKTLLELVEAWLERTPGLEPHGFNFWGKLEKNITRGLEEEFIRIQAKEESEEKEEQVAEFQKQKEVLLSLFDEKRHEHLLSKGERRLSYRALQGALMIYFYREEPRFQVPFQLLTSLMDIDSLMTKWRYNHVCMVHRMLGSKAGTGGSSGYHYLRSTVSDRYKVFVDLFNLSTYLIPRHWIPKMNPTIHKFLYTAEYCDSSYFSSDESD
Assay: TDO2 enzymatic assay (NFK quantified by LCMS)
Assay type: biochemical
Conditions: 15 nM enzyme, 200 μM L-tryptophan, 30 min pre-incubation, pH7; mean if measured multiple times; read-out: hTDO activity (IC50 in nM)
Description: 2) Testing Compounds for TDO Inhibitory Activity in a TDO2 Enzymatic Assay: Recombinant human TDO comprising amino acids 19-407 with a N-terminal hexahistidine tag expressed in E. coli and purified to homogeneity is incubated at a final concentration of 15 nM in assay buffer consisting of 75 mM phosphate buffer at pH7 supplemented with 100 μM ascorbic acid, 50 U/ml Catalase, 0.01% BSA, and 0.01% Tween 20 (protocol modified from Seegers et al, JBS 2014). […]
Each entry below lists one item and its recorded IC50 value.

Oc1ccc(-n2cc([C@@H](O)c3c(C4CC4)ccc4cncn34)nn2)cc1Cl [Example 7b] yielded IC50 of > 10200 nM

Please fill in: IC50 reported for CN1CCc2cc(-n3cc([C@H](O)c4c(C5CC5)ncc5cncn45)nn3)ccc21 [Example 47] = > 10200 nM

Further cases:
The reported IC50 of the molecule Cc1c(C(O)c2c(Cl)ccc3cncn23)nnn1-c1ccccc1 (racemic) [Example 38] was 4710 nM

Please fill in: IC50 reported for Oc1ccc(-n2cc(C(O)c3c(C4CC4)ncc4cncn34)nn2)cc1Cl (racemic) [Example 10] = > 10200 nM

Notebook: COC(=O)Nc1ccc(-n2cc(C(O)c3c(C4CC4)ccc4cncn34)nn2)cc1 (racemic) [Example 6] , IC50 read as > 10200 nM

Reported IC50 for COc1ccc(-n2cc([C@H](O)c3c(C4CC4)ncc4cncn34)nn2)c(F)c1Cl [Example 33] was > 10200 nM

Please fill in: IC50 reported for Cc1c(C(O)c2c(Cl)ccc3cncn23)nnn1-c1ccc(O)c(Cl)c1 (racemic) [Example 43] = 832 nM

----------
Biological target: IDO1 in SKOV3 cells (Homo sapiens, UniProt P14902)
Construct: SKOV3 cells (NCI, No. 0503405) which upregulate IDO1 after stimulation with IFNγ; host or cells: SKOV3 cells stimulated with IFNγ
Sequence (P14902 whole entry): as the sequence (P14902 whole entry) above
Test: Cell-based IDO inhibitory activity in IFNγ-stimulated SKOV3 cells (NFK + kynurenine by LCMS)
Conditions: IFNγ 50 ng/ml, 200 uM L-tryptophan, 24 hours
# IC50 per entry

Example cases with answers are listed next.
Reported IC50 of CCc1ncc2cncn2c1C(O)c1cn(-c2cc(F)c(OC)cc2F)nn1 (racemic) [Example 32] : 70.2 nM

The reported value for CN(C)c1ccc(-n2cc([C@H](O)c3c(C4CC4)ncc4cncn34)nn2)cc1 [Example 44] in terms of IC50 is 377 nM

For reference, reported IC50 for COc1ccc(-n2cc([C@H](O)c3c(Cl)ccc4cncn34)nn2)cc1 [Example 30] stands at 52.4 nM

Further cases:
So, CN1CCc2cc(-n3cc([C@H](O)c4c(C5CC5)ncc5cncn45)nn3)ccc21 [Example 47] ? Its IC50 was 145 nM

Lab note: OC(c1cn(-c2ccccc2)nn1)c1c(C2CC2)ncc2cncn12 (racemic) [Example 3] gave IC50 of 470 nM

compound COc1ccc(-n2nnc(C(O)c3c(Cl)ccc4cncn34)c2Cl)cc1 (racemic) [Example 51] , IC50 observed: 145 nM

The compound listed as COc1cc(F)c(-n2cc([C@H](O)c3c(Cl)ccc4cncn34)nn2)cc1F [Example 31] shows IC50 equal to 9.2 nM

Record Cc1c(C(O)c2c(Cl)ccc3cncn23)nnn1-c1ccc(OCCC(C)(C)O)c(F)c1 (racemic) [Example 50] , field IC50: 5.41 nM

IC50 for Cc1c(C(O)c2c(C3CC3)ncc3cncn23)nnn1-c1ccccc1F (racemic) [Example 57] is 333 nM

----------
Molecular target: Recombinant human TDO comprising amino acids 19-407 (Homo sapiens)
Construct: human TDO comprising amino acids 19-407; hexahistidine (N); made in house; host or cells: E. coli
Test: TDO2 enzymatic assay (NFK quantified by LCMS)
Format: biochemical
Conditions: 15 nM enzyme, 200 μM L-tryptophan, 30 min pre-incubation, pH7; mean if measured multiple times; read-out: hTDO activity (IC50 in nM)
Documented IC50 across a set of molecules

The cases that follow already have their IC50 on record.
The recorded IC50 for entry Cc1ccc(-n2cc(C(O)c3c(C4CC4)ccc4cncn34)nn2)cc1 (racemic) equals > 10200 nM

Noted for "O[C@@H](c1cn(-c2cc(F)c(OCC3COC3)cc2F)nn1)c1c(C2CC2)ncc2cncn12" : its IC50 reads > 10200 nM

// recorded IC50 for "COc1ccc(-n2cc([C@H](O)c3c(C4CC4)ccc4cncn34)nn2)cc1Cl" : > 10200 nM

Note to self: IC50 recorded for CCOc1ccc(-n2cc(C(O)c3c(C4CC4)ncc4cncn34)nn2)cn1 (racemic) was > 10200 nM

More entries:
IC50 in this record for CCc1ccc2cncn2c1[C@@H](O)c1cn(-c2cc(F)c(OC)cc2F)nn1 [Example 35a] : > 10200 nM

Summary for this molecule, "CN(C)c1ccc(-n2cc([C@H](O)c3c(C4CC4)ncc4cncn34)nn2)cc1" : IC50 is > 10200 nM

So for COc1ccc(-n2nnc([C@H](O)c3c(Cl)ccc4cncn34)c2C)cc1 [Example 20a] , the logged IC50 turned out to be 2190 nM

Short answer for OC(c1ccc(-c2ccccc2)s1)c1c(Cl)ccc2cncn12 (racemic) [Ref4, reference compound] : IC50 was 8650 nM

Record Cc1c(C(O)c2c(Cl)ccc3cncn23)nnn1-c1ccc(OCCC(C)(C)O)c(Cl)c1 (racemic) . Reported IC50: 8360 nM

Sample Cc1c(C(O)c2c(Cl)ccc3cncn23)nnn1-c1ccc(OCCC(C)(C)O)c(F)c1 (racemic) ; IC50 observed: 8200 nM

The molecule "Cc1ccc2cncn2c1[C@@H](O)c1cn(-c2ccccc2)nn1" showed IC50 equal to > 10200 nM

What the record says about "O[C@@H](c1cn(-c2ccc(N3CCC34COC4)cc2)nn1)c1c(C2CC2)ncc2cncn12" : IC50 is > 10200 nM

----------
Each item that follows carries a reported IC50.
Molecular target: Recombinant full-length human IDO1 (Homo sapiens)
Construct: Recombinant full-length human IDO1 with a N-terminal hexahistidine tag; hexahistidine (N); made in house; host or cells: E. coli
Assay: IDO1 enzymatic assay (NFK quantified by LCMS)
Type: biochemical
Details: 2 nM enzyme, 5 μM L-tryptophan, 30 min pre-incubation, pH6.5; mean if measured multiple times; read-out: hIDO activity (IC50 in nM)
State the answer as a number, implicitly in nM.

Noted for "O[C@@H](c1cn(-c2ccc(N3CCC34COC4)cc2)nn1)c1c(C2CC2)ncc2cncn12" : its IC50 reads 15.1

Entry CCc1ccc2cncn2c1C(O)c1cn(-c2cc(F)c(OC)cc2F)nn1 (racemic) , IC50 reported as 3.39

Short answer for Cc1c(C(O)c2c(Cl)ccc3cncn23)nnn1-c1ccc(O)c(F)c1 (racemic) : IC50 was 2.29

----------
// values below are reported IC50
Target: IDO1 in SKOV3 cells (Homo sapiens)
Construct: SKOV3 cells (NCI, No. 0503405) which upregulate IDO1 after stimulation with IFNγ; host or cells: SKOV3 cells stimulated with IFNγ
Assay: Cell-based IDO inhibitory activity in IFNγ-stimulated SKOV3 cells (NFK + kynurenine by LCMS)
Details: IFNγ 50 ng/ml, 200 uM L-tryptophan, 24 hours
Only the number, expressed in nM, is required.

For orientation, consider the following solved cases.
Form field IC50, entry "COc1ccc(-n2cc([C@H](O)c3c(C4CC4)ncc4cncn34)nn2)c(F)c1Cl" : 127

The compound listed as COc1cc(F)c(-n2nnc(C(O)c3c(Cl)ccc4cncn34)c2C)cc1Cl (racemic) has a reported IC50 of 6.94

Data point: "Oc1ccc(-n2cc([C@H](O)c3c(C4CC4)ncc4cncn34)nn2)cc1F" ; IC50 = 47.4

For this compound ( COC(=O)Nc1ccc(-n2cc(C(O)c3c(C4CC4)ccc4cncn34)nn2)cc1 (racemic) ), measured IC50 is 11.8

What the record says about "COc1ccc(-n2cc([C@H](O)c3c(C4CC4)ncc4cncn34)nn2)cc1F" : IC50 is 33.2

New cases:
IC50 reported for this compound "O[C@@H](c1cn(-c2cc(F)c(OCC3(F)COC3)cc2F)nn1)c1c(C2CC2)ncc2cncn12" : 18.1

IC50 for OC(c1cn(-c2ccc(OCC3(F)COC3)cc2)nn1)c1c(C2CC2)ccc2cncn12 (racemic) is 11.6

IC50 reading for CC(C)(O)COc1ccc(-n2cc(C(O)c3c(C4CC4)ncc4cncn34)nn2)cc1 (racemic) : 140

# IC50 of OC(c1cn(-c2ccc(OCC3(F)COC3)cc2)nn1)c1c(C2CC2)ncc2cncn12 (racemic) = 94.6
